measurement target: T1, biotinylated CRH (human and mouse, not fully specified; biotinylated, position not stated)
T1 construct: also called Biotin-CRH; biotin-labeled CRH
T1 peptide: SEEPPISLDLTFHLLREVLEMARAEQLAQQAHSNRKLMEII
test summary: competitive ELISA, coated 1st mAb; competitor PR302055
parameter: % Inhibition (%)

{"binder": "PR302064 (antibody, human IgG1, kappa, V domains shown, Humanized variant of PR301777) VH: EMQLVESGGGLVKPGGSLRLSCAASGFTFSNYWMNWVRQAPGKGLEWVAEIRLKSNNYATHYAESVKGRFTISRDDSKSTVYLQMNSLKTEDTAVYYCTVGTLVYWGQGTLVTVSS VL: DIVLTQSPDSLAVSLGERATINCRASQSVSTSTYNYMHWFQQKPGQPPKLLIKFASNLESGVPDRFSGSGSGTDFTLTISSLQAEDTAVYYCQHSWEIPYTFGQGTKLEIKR", "reported measurement": 95}
{"binder": "PR302050 (antibody, human IgG1, kappa, V domains shown, Humanized variant of PR301777) VH: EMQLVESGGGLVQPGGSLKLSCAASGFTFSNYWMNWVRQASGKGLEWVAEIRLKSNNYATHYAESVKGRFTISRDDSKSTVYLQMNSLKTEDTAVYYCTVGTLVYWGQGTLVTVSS VL: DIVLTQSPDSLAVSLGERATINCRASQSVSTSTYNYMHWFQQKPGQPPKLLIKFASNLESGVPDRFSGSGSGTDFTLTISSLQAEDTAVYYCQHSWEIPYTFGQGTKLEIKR", "reported measurement": 94}
{"binder": "PR302069 (antibody, human IgG1, kappa, V domains shown, Humanized variant of PR301777) VH: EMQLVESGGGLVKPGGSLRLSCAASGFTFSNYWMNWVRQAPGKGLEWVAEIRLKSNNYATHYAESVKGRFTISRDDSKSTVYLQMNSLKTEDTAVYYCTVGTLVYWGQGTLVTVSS VL: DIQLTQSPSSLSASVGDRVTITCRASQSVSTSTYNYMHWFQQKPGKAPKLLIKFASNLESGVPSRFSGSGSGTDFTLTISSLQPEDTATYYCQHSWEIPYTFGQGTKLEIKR", "reported measurement": 95}
{"binder": "PR302055 (antibody, human IgG1, kappa, V domains shown, Humanized variant of PR301777) VH: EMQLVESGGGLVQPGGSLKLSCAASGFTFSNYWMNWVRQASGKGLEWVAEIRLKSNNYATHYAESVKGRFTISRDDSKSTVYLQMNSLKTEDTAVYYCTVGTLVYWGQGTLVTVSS VL: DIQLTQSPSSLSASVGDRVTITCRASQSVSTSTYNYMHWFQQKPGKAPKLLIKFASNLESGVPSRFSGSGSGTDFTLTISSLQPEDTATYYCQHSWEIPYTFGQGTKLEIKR", "reported measurement": 95}

Data credit: patent US20260042834A1
